# Measured on: LHRH receptor (LHRH binding sites) on EFO-27 human ovarian cancer cells (human)
# Experiment: internalization/efflux study, cell-associated radioactivity, EFO-27 cells
Non-standard residues stand in square brackets, D forms with d. Bpa = N[C@@H](Cc1ccc(C(=O)c2ccccc2)cc1)C(=O)O; DO3A10CM = not defined here; Amfe4 = not defined here; Mogly = not defined here; azaGly = NNC(=O)O; Sar = CNCC(=O)O
Criterion: Bound % strictly under 10%. Met: condition met. Not met: condition not met.

binder="XHWSHXWXPX (177Lu held by the N-terminal DO3A10CM: 177Lu-DO3A10CM-Damfe4-His-Trp-Ser-His-Darg-Trp-Bpa4-Pro-azaGly-NH2) [^177Lu-BRU-2757]" label="condition met"
binder="DO3A10CM-G[Mogly]HWSH[dR]W[Bpa]P[azaGly]-NH2 (reading uncertain; also: 177Lu complexed by DO3A10CM, printed as 177Lu-DO3A10CM-Gly-Mogly-His-Trp-Ser-His-Darg-Trp-Bpa4-Pro-azaGly-NH2) [^177Lu-BRU-2796]" label="condition met"
binder="DO3A10CM-[Sar][Amfe4]WSH[dR]W[Bpa]P[azaGly]-NH2 (reading uncertain; also: 177Lu complexed by DO3A10CM, printed as 177Lu-DO3A10CM-Sar-Amfe4-Trp-Ser-His-Darg-Trp-Bpa4-Pro-azaGly-NH2) [^177Lu-BRU-2756]" label="condition met"
binder="XRWSHXWXP (177Lu held by the N-terminal DO3A10CM: 177Lu-DO3A10CM-Dnal2-Arg-Trp-Ser-His-Darg-Trp-Bpa4-Pro-Da15o3pt) [^177Lu-BRU-2968]" label="condition not met"
binder="XRWSHXWXPX (177Lu held by the N-terminal DO3A10CM: 177Lu-DO3A10CM-Dnal2-Arg-Trp-Ser-His-Darg-Trp-Bpa4-Pro-azaGly-NH2) [^177Lu-BRU-2813]" label="condition not met"
